TARGET: Papain (Carica papaya, UniProt P00784)
Sequence (P00784 134-345): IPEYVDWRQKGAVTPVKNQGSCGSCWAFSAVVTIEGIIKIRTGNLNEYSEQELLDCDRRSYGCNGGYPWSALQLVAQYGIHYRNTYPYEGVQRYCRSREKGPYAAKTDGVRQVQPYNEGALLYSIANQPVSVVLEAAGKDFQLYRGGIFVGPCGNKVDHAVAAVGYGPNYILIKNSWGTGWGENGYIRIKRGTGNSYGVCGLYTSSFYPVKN
METHOD: biochemical
MEASUREMENT SETUP: read-out: Compound IC50
RECORDED METRIC: IC50 (nM)
Kindly provide the numeric value in nM only, without the unit symbol.

[ask] Quickly give me recorded IC50 for CC(C)C[C@H](NC(=O)[C@H]1O[C@@H]1C(=O)O)C(=O)NCCCCN=C(N)N
[reply] 0.118

----------
TARGET: Caspase 4 (Homo sapiens, UniProt P49662)
Sequence (P49662 105-377): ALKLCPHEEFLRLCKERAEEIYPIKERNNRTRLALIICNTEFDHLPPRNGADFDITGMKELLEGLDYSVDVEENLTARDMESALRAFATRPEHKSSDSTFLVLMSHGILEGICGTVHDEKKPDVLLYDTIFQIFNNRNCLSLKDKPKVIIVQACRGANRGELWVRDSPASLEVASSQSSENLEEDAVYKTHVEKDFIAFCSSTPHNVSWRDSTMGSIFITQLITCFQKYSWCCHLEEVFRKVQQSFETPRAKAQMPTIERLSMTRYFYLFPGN
Peptide text beside a SMILES is read from it.
RECORDED METRIC: IC50 (nM)
The response must be a number in nM with no trailing unit.

[ask] Find the measured IC50 of CC[C@H](C)[C@H](NC(C)=O)C(=O)N[C@@H](CCC(=O)O)C(=O)N[C@H](C(=O)N[C@H](C=O)CC(=O)O)[C@@H](C)O [IETD-CHO] (Ac-IETD-aldehyde) and report it.
[reply] 2180
